Provide the recorded pKd for the entries that follow.
System: T1, native full length human CB1 receptor (cannabinoid 1 receptor) (human, UniProt P21554 1-472)
T1 construct: whole, on cells; also called A156; Native human CB1 TRex CHO A156
T1 sequence (P21554 whole entry): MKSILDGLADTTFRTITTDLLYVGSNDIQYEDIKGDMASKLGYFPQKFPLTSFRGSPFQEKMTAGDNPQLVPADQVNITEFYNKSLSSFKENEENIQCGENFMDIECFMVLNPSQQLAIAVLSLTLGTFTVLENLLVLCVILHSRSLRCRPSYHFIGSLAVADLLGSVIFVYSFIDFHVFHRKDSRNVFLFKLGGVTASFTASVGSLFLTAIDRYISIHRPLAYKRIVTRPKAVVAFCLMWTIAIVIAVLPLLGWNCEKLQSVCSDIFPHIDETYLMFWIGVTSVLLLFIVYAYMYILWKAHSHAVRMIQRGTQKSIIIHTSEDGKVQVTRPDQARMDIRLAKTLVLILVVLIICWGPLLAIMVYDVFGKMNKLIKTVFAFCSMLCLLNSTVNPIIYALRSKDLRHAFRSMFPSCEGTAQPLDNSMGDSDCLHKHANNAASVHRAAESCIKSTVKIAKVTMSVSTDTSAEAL
Assay Procedure: flow cytometry, TRex-CHO full length native human CB1 cells; mean
Answers are plain numbers, as −log10 of the molar value.

{"Binder": "RY-LC-B12 FACS3 (IgG4 S228P) (antibody, V domains shown) VH: QVQLVQSGAEVKKPGSSVKVSCKASGYEFSYYWMNWVRQAPGQGLEWMGQIYPGDGETKYAQKFQGRVTITADKSTSTAYMELSSLRSEDTAVYYCARSHGNYLPYWGQGTLVTVSS VL: EIVLTQSPATLSLSPGERATLSCRASQSVSSRYLHWYQQKPGQAPRLLIYSTSRLASGIPARFSGSGSGTDFTLTISRLEPEDFAVYYCQQYHRSPPTFGQGTKVEIKR", "pKd": 8.05}

Respectfully, I request pKd for each entry included below.
1. RY-HL-LC-C12 FACS4 (IgG4 S228P) (antibody, V domains shown) VH: QVQLVQSGAEVKKPGSSVKVSCKASGYEFSYYWMNWVRQAPGQGLEWMGQIYPGDGETKYAQKFQGRVTITADKSTSTAYMELSSLRSEDTAVYYCARSHGNYLPYWGQGTLVTVSS VL: EIVLTQSPATLSLSPGERATLSCRASQSVSSRYLHWYQQKPGQAPRLLIYSTSRLASGIPARFSGSGSGTDFTLTISRLEPEDFAVYYCHQYHRSPPTFGQGTKVEIKR
2. RY-LC-A10 FACS5 (IgG4 S228P) (antibody, V domains shown) VH: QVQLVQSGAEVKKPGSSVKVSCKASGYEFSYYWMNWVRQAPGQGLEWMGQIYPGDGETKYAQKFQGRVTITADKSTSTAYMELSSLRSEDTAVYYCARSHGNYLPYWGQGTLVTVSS VL: EIVLTQSPATLSLSPGERATLSCRASQSVSSRYLHWYQQKPGQAPRLLIYSTSNRASGIPARFSGSGSGTDFTLTISRLEPEDFAVYYCQQYHRSPPTFGQGTKVEIKR
3. RY-HL-LC-A12 FACS4 (IgG4 S228P) (antibody, V domains shown) VH: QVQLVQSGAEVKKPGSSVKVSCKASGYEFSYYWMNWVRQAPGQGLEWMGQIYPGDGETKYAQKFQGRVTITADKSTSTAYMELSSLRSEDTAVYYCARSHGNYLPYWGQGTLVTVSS VL: EIVLTQSPATLSLSPGERATLSCRASQSVSSRYLHWYQQKPGQAPRLLIYGTSNLASGIPARFSGSGSGTDFTLTISRLEPEDFAVYYCHQYSRSPPTFGQGTKVEIKR

[7.85, 7.91, 7.99]
